# Tested on: human liver cytosol stability, half-life
# assay.procedure: NCATS Human Liver Cytosol Stability Profiling
# measurement.setup: higher = more stable
Entries and their half-life

{"compound": "COCCOC1CCN(C(=O)Nc2cccc(F)c2)CC1", "half-life": "> 2 h"}
{"compound": "C[C@@]1(O)CCN(Cc2ccc(C#N)cc2)C[C@H]1N1CCCC1", "half-life": "> 2 h"}
{"compound": "Fc1cccc(-c2noc(-c3nc(-c4ccncc4)no3)n2)c1", "half-life": "0.44 h"}
{"compound": "N#Cc1cccc(-c2c(C(=O)N3CCCCC3)nc3sccn23)c1", "half-life": "1.72 h"}
{"compound": "COc1ccc(CN2CC(Oc3ccc(F)c(F)c3)C2)cc1", "half-life": "0.5 h"}
{"compound": "Cc1noc(C)c1-c1cc(-c2cccc(F)c2)cn2cncc12", "half-life": "1.5 h"}
{"compound": "N#Cc1cccc(CN2CC(COc3ccccc3)C3(C2)CN(c2ccccc2)C3)c1 (stereo not given)", "half-life": "0.693 h"}
{"compound": "CCN1CCN(C(=O)c2cc(-c3ccccc3OC)c3nncn3n2)CC1", "half-life": "> 2 h"}
{"compound": "N#Cc1ccc(CN2CCC(N3Cc4cccn4C3=O)CC2)cc1", "half-life": "> 2 h"}
{"compound": "Cc1nnc([C@H]2CCN(Cc3ccc(C#N)cc3)C2)o1", "half-life": "> 2 h"}
{"compound": "COc1cccc(-c2c(C(=O)Nc3ccc(C)cc3)nc3sccn23)c1", "half-life": "1.55 h"}
{"compound": "CC1(c2ccccc2)N(Cc2ccccc2)C(=O)OC12CCN(Cc1cccc(C#N)c1)CC2 (stereo not given)", "half-life": "> 2 h"}
{"compound": "CC(C)(C)c1coc([C@@H]2COCCN2Cc2ccc(C(=O)O)cc2)n1", "half-life": "1.88 h"}
{"compound": "COCCNC(=O)c1nc2sccn2c1-c1cccc(C#N)c1", "half-life": "> 2 h"}
{"compound": "CC1(c2ccccc2)N(Cc2ccccc2)C(=O)OC12CCN(Cc1ccc(C(=O)O)cc1)CC2 (stereo not given)", "half-life": "> 2 h"}
{"compound": "COc1ccc(CN2CC(Oc3ccc(OC)cc3)C2)cc1", "half-life": "> 2 h"}
{"compound": "CCOc1cc(=O)n2c(c1C(=O)Nc1ccc(S(N)(=O)=O)cc1)CCCC2", "half-life": "> 2 h"}
{"compound": "O=C(NCCCn1ccnc1)c1ccc(-c2ncc3cnc(-c4cccc(F)c4)cn23)cc1", "half-life": "0.847 h"}
{"compound": "N#Cc1ccc(C(=O)N2CCOC[C@H](Oc3cnccn3)C2)cc1", "half-life": "> 2 h"}
{"compound": "COc1cccc(-c2c(C(=O)NC3CC3)nc3sccn23)c1", "half-life": "> 2 h"}
{"compound": "CN1CCOC2(CCN(Cc3cccc(C#N)c3)CC2)C1=O", "half-life": "> 2 h"}
{"compound": "COc1cccc(CN2CC[C@H](c3nc4ccccc4[nH]3)C2)c1", "half-life": "> 2 h"}
{"compound": "O=C(O)c1ccc(-c2ccc(N3CCCCCC3)nc2)cc1", "half-life": "> 2 h"}
{"compound": "O=C(O)c1ccc(CN2CC(COc3ccccc3)C3(C2)CN(c2ccccc2)C3)cc1 (stereo not given)", "half-life": "> 2 h"}
{"compound": "COc1ccc(C(=O)N2CCCOCCNC(=O)CC2)cc1", "half-life": "1.17 h"}
{"compound": "COc1cncc(Nc2ncc(-c3cccc(F)c3)c3c2OCC3)c1", "half-life": "1.34 h"}
{"compound": "O=C(O)c1ccc(-c2ncc3cnc(-c4cccc(F)c4)cn23)cc1", "half-life": "> 2 h"}
{"compound": "CN1CCC(OC2CCN(C(=O)c3ccccc3)CC2)CC1", "half-life": "> 2 h"}
{"compound": "COCCOC1CCN(C(=O)Nc2ccccc2)CC1", "half-life": "> 2 h"}
{"compound": "CCN1CCN(C(=O)Cc2cccn2-c2ccc(F)cc2)CC1", "half-life": "> 2 h"}
{"compound": "CN1CCC(OC2CCN(C(=O)c3cccc(F)c3)CC2)CC1", "half-life": "> 2 h"}
{"compound": "COc1cccc(-c2cn3c(n2)N(C(=O)c2ccco2)CCC3)c1", "half-life": "0.993 h"}
{"compound": "Cc1ccccc1-c1[nH]nc2ncc(-c3cccc(F)c3)nc12", "half-life": "0.817 h"}
{"compound": "CN1CCN(C(=O)c2cc(-c3cccnc3)nc3c2cnn3C)CC1", "half-life": "> 2 h"}
{"compound": "O=C(N1CCN(S(=O)(=O)c2cccc(F)c2)CC1)N1CC2CC(C1)[C@H]1CCCC(=O)N1C2 (stereo not given in full)", "half-life": "> 2 h"}
{"compound": "N#Cc1cccc(-c2c(C(=O)N3CCOCC3)nc3sccn23)c1", "half-life": "> 2 h"}
{"compound": "N#Cc1cccc(CN2C[C@@H](CO)[C@H](c3ccccn3)C2)c1", "half-life": "0.957 h"}
{"compound": "O=C(N1CCN([S+](=O)([O-])c2ccccc2)CC1)N1CC2CC(C1)[C@H]1CCCC(=O)N1C2 (stereo not given in full)", "half-life": "> 2 h"}
{"compound": "CN(C)[C@@H]1CN(C(=O)c2ccc(C#N)cc2)C[C@H]1CO", "half-life": "> 2 h"}
{"compound": "N#Cc1cccc(CN2CCOC[C@H]2c2ncc(-c3ccc(F)cc3)[nH]2)c1", "half-life": "1.58 h"}
{"compound": "CN(CC1CCOC1)C(=O)Nc1ccccc1 (stereo not given)", "half-life": "> 2 h"}
{"compound": "COc1ccc(CN2CC[C@@](C)(O)[C@H](N3CCCC3)C2)cc1", "half-life": "> 2 h"}
{"compound": "COc1cccc(-c2c(C(=O)N3CCOCC3)nc3sccn23)c1", "half-life": "> 2 h"}
{"compound": "N#Cc1cccc(-c2c(C(=O)NC3CC3)nc3sccn23)c1", "half-life": "1.59 h"}
{"compound": "CCN1CCN(C(=O)C2Cn3cccc3C(=O)N2CC(C)C)CC1 (stereo not given)", "half-life": "> 2 h"}

---

# System: human liver cytosol stability, half-life
# assay.procedure: NCATS Human Liver Cytosol Stability Profiling
# measurement.setup: higher = more stable
Quick rule: half-life of at least 0.4 h means TRUE, below that means FALSE.

{"compound": "COc1cccc(-c2cn3c(n2)N(C(=O)c2cccs2)CCC3)c1", "assigned.category": "TRUE"}
{"compound": "CC(=O)N1CCC(Cc2ccc(C(=O)O)cc2)CC1", "assigned.category": "TRUE"}
{"compound": "COc1ccc(CN2CCC(N3CCOC3=O)CC2)cc1", "assigned.category": "TRUE"}
{"compound": "COCCNc1nc(N)nc2c1CCN(C(=O)c1cscn1)CC2", "assigned.category": "TRUE"}
{"compound": "COc1ccc(CN2CC(Oc3ccc(F)c(C)c3)C2)cc1", "assigned.category": "FALSE"}
{"compound": "N#Cc1cccc(CN2CCOC[C@H](O)C2)c1", "assigned.category": "TRUE"}
{"compound": "CN(Cc1cccc(F)c1)C1CCOc2ccccc21 (configuration not stated)", "assigned.category": "FALSE"}
{"compound": "COc1ccc(CN2CCC(N3Cc4cccn4C3=O)CC2)cc1", "assigned.category": "TRUE"}
{"compound": "COc1ccc(C(=O)N2C[C@@H](CO)[C@H](N(C)C)C2)cc1", "assigned.category": "TRUE"}
{"compound": "COc1ccc(CN2CC(Oc3ccc(F)cc3C)C2)cc1", "assigned.category": "FALSE"}
{"compound": "COc1ccc(-c2[nH]nc3ncc(-c4cccc(F)c4)nc23)c(C)c1", "assigned.category": "TRUE"}
{"compound": "Fc1cccc(Nc2ncc(-c3cccnc3)c3c2OCC3)c1", "assigned.category": "TRUE"}

---

This section presents compounds with their documented half-life values.
# Tested on: human liver cytosol stability, half-life
# assay.procedure: NCATS Human Liver Cytosol Stability Profiling
# measurement.setup: higher = more stable

{"compound": "COc1ccc(CN2CC[C@H](c3nnc(C)o3)C2)cc1", "relation": ">", "half-life [h]": 2}
{"compound": "COc1cccc(CN2CCC3(CC2)OCCN(C)C3=O)c1", "relation": ">", "half-life [h]": 2}
{"compound": "Fc1cccc(-c2cnc(Nc3cccnc3)c3c2CCO3)c1", "relation": ">", "half-life [h]": 2}
{"compound": "O=C(c1cccs1)N1CCC(Oc2cccc(F)c2)C1 (configuration not stated)", "relation": "=", "half-life [h]": 0.29}
{"compound": "COc1ccc(CN2CC(Oc3ccc(F)cc3F)C2)cc1", "relation": "=", "half-life [h]": 0.605}
{"compound": "N#Cc1cccc(-c2cn3c(n2)N(C(=O)c2cccs2)CCC3)c1", "relation": ">", "half-life [h]": 2}
{"compound": "Cc1ccc(NC(=O)c2nc3sccn3c2-c2cccc(C#N)c2)cc1", "relation": "=", "half-life [h]": 0.29}
{"compound": "CC(C)CN1C(=O)c2cccn2CC1C(=O)N1CCN(C)CC1 (configuration not stated)", "relation": "=", "half-life [h]": 1.79}
{"compound": "O=C(c1cccnc1)N1CCC(Oc2cccc(F)c2)C1 (configuration not stated)", "relation": ">", "half-life [h]": 2}
{"compound": "N#Cc1ccc(CN2CCC3(COc4ccccc4C(=O)N3)C2)cc1 (configuration not stated)", "relation": "=", "half-life [h]": 0.64}
{"compound": "Cc1cc2cc(-c3c(C)noc3C)nc(Nc3cccc(F)c3)c2o1", "relation": "=", "half-life [h]": 0.137}
{"compound": "O=c1c2nc(Nc3cccc(F)c3)ccc2ncn1-c1ccccc1", "relation": "=", "half-life [h]": 1.57}
{"compound": "CNC(=O)[C@@H]1CN(C(=O)c2cccc(C#N)c2)C[C@H]1COC", "relation": "=", "half-life [h]": 1.44}
{"compound": "CCN1CCN(C(=O)c2cc(-c3ccc(F)cc3)nc3c2cnn3C)CC1", "relation": ">", "half-life [h]": 2}
{"compound": "COc1ccc(CN2CCC3(COc4ccccc4C(=O)N3)C2)cc1 (configuration not stated)", "relation": "=", "half-life [h]": 0.578}
{"compound": "Cc1cc(OC2CN(Cc3ccc(C#N)cc3)C2)ccc1F", "relation": "=", "half-life [h]": 0.73}
{"compound": "COc1ccccc1CN1CCC2(CC1)CC(O)CCO2 (configuration not stated)", "relation": ">", "half-life [h]": 2}
{"compound": "N#Cc1cncc(N2CC3CCC(C2)N3CC(F)(F)F)c1", "relation": ">", "half-life [h]": 2}
{"compound": "N#Cc1cccc(CN2CC[C@H](c3nnc(-c4ccco4)o3)C2)c1", "relation": ">", "half-life [h]": 2}
{"compound": "COC(=O)[C@@H]1Cc2ncn(C)c2CN1C(=O)c1ccc(C#N)cc1", "relation": ">", "half-life [h]": 2}
{"compound": "COc1ccc(OC2CN(Cc3ccc(C#N)cc3)C2)cc1", "relation": ">", "half-life [h]": 2}
{"compound": "COc1ccc(CN2CCC(N3CCNC3=O)CC2)cc1", "relation": ">", "half-life [h]": 2}
{"compound": "N#Cc1ccc(CN2CC(Oc3ccc(F)c(F)c3)C2)cc1", "relation": "=", "half-life [h]": 1.19}
{"compound": "CN1CCN(C(=O)Cc2cccn2-c2ccc(F)cc2)CC1", "relation": ">", "half-life [h]": 2}
{"compound": "Cn1cnc2ccc(Nc3cccc(F)c3)nc2c1=O", "relation": "=", "half-life [h]": 1.92}
{"compound": "O=c1c2nc(Nc3cccc(F)c3)ccc2ncn1-c1cccnc1", "relation": "=", "half-life [h]": 1.61}
{"compound": "COc1ccc(C(=O)N2CCC3(CCC3OC)CC2)cc1 (configuration not stated)", "relation": "=", "half-life [h]": 1.17}
{"compound": "Cn1ccc(NC(=O)c2ccc(-c3ncc4cnc(-c5cccc(F)c5)cn34)cc2)n1", "relation": "=", "half-life [h]": 0.553}
{"compound": "COc1ccc(CN2CCC3(CC2)CC(=O)c2ccccc2O3)cc1", "relation": ">", "half-life [h]": 2}
{"compound": "Cc1nn2c(c1-c1ccccc1Oc1ccccc1)N(Cc1cccc(C#N)c1)CCC2", "relation": ">", "half-life [h]": 2}
{"compound": "CN1c2cc(C(=O)Nc3ccc(S(N)(=O)=O)cc3)ccc2C(=O)N2CCCCC21 (configuration not stated)", "relation": ">", "half-life [h]": 2}
{"compound": "N#Cc1ccc(CN2C[C@@H](CO)[C@H](c3ccncc3)C2)cc1", "relation": "=", "half-life [h]": 1.78}
{"compound": "COC1CCC12CCN(C(=O)c1ccc(C#N)cc1)CC2 (configuration not stated)", "relation": "=", "half-life [h]": 1.32}
{"compound": "COc1ccc(CN2CC(N3CCc4ccccc43)C2)cc1", "relation": "=", "half-life [h]": 1.37}
{"compound": "COc1cccc(CN2CC[C@H](c3nnc(-c4ccco4)o3)C2)c1", "relation": "=", "half-life [h]": 1.97}
{"compound": "N#Cc1cccc(-c2cn3c(n2)N(C(=O)c2ccoc2)CCC3)c1", "relation": ">", "half-life [h]": 2}
{"compound": "CCN1CCN(C(=O)c2nc3sccn3c2-c2cccc(OC)c2)CC1", "relation": ">", "half-life [h]": 2}
{"compound": "O=C(c1cccs1)N1CCC(Oc2ccccc2)C1 (configuration not stated)", "relation": "=", "half-life [h]": 0.638}
{"compound": "O=C(c1ccoc1)N1CCC(Oc2cccc(F)c2)C1 (configuration not stated)", "relation": "=", "half-life [h]": 1.18}
{"compound": "COc1ccc(CN2CCC3(C2)NC(=O)c2ccccc2O3)cc1 (configuration not stated)", "relation": ">", "half-life [h]": 2}
{"compound": "Fc1cccc(-c2cnc([C@@H]3COCCN3Cc3cnc[nH]3)[nH]2)c1", "relation": "=", "half-life [h]": 0.988}
{"compound": "CN1CCN(C(=O)c2ccc3nccn3c2)CC1", "relation": ">", "half-life [h]": 2}
{"compound": "CCOc1cc(=O)n2c(c1C(=O)Nc1ccc(C#N)cc1)CCCC2", "relation": "=", "half-life [h]": 1.69}
{"compound": "N#Cc1cccc(CN2CC[C@H](c3nc4ccccc4[nH]3)C2)c1", "relation": ">", "half-life [h]": 2}
{"compound": "O=c1cc(N2CCOCC2)oc2c(-c3cccc(F)c3)nccc12", "relation": ">", "half-life [h]": 2}
{"compound": "Cc1noc(-c2cn(C3CCN(C(=O)c4ccccc4)C3)nn2)n1 (configuration not stated)", "relation": ">", "half-life [h]": 2}
{"compound": "O=C(O)c1ccc2c(c1)n(Cc1cccc(F)c1)c(=O)c1ccnn12", "relation": ">", "half-life [h]": 2}
